- Measured On: CFTR Cl− channel (Homo sapiens)
- Assay Comment: Apical Cl− current analysis of CFTR Cl− channel activity in basolaterally permeabilized T84 cells
- Assay type: cell-based
- Measurement Conditions: CPT-cAMP 100 µM, read-out: IC50, inhibition of apical Cl− current induced by CPT-cAMP
Quantity Kind: pIC50
Scale: negative log10 of molar concentration, which is what pIC50 denotes.

Q: Request body: readout pIC50, system CFTR Cl− channel (Homo sapiens), query `O=C(O)Cc1ccccc1Nc1c(Cl)cccc1Cl` . Return the value.
Ans: 5.07

###

- Measured On: CFTR Cl− channel (Homo sapiens, UniProt P13569)
- Sequence (P13569 whole entry): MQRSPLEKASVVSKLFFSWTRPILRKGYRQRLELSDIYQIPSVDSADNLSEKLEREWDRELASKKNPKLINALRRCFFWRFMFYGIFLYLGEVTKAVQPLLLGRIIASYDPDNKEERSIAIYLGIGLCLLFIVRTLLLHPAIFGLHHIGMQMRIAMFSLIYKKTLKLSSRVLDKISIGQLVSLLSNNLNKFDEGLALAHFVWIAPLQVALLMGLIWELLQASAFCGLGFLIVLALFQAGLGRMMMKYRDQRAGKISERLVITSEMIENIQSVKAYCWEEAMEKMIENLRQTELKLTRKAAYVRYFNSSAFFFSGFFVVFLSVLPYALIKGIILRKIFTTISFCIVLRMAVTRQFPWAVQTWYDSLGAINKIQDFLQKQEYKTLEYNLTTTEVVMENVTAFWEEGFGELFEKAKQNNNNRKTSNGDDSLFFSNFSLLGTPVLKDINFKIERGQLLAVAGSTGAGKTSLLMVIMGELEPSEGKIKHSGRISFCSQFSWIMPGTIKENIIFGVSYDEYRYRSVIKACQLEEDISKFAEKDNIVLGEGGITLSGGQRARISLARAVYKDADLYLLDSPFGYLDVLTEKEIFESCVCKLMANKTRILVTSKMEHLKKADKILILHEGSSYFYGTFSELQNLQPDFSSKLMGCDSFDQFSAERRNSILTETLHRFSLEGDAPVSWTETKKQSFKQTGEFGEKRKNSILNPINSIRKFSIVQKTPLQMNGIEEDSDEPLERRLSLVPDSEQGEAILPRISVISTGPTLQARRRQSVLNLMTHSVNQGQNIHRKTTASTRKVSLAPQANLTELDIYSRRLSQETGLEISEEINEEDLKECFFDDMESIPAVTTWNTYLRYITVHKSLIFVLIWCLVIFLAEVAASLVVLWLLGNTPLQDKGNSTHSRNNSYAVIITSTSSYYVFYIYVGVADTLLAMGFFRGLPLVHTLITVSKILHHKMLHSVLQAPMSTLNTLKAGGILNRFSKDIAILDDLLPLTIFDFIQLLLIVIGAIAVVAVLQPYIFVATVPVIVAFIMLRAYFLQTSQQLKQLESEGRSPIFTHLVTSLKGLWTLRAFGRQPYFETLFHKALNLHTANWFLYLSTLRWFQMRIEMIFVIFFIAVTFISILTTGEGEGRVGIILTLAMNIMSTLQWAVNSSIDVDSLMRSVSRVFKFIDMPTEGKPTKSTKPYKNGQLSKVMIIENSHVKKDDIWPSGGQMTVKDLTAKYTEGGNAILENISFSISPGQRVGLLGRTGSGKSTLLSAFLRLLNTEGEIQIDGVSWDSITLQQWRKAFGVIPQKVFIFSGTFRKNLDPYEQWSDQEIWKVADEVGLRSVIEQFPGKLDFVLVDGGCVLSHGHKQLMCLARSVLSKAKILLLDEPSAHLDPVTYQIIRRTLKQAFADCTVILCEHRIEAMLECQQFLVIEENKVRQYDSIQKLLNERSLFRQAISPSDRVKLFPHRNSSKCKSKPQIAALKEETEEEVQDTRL
- Assay Comment: Apical Cl− current analysis of CFTR Cl− channel activity in Calu-3 cells
- Assay type: cell-based
- Measurement Conditions: CPT-cAMP, 100 µM, read-out: IC50, inhibition of CFTR-mediated apical Cl− current induced by CPT-cAMP
pIC50: −log10 of the molar value.
Quantity Kind: pIC50

Q: # input compound: `O=C(O)Cc1ccccc1Nc1c(Cl)cccc1Cl` ; wanted: its pIC50
Ans: ~5.00

###

- Measured On: CFTR Cl− channel (Homo sapiens)
- Assay Comment: Apical Cl− current analysis of CFTR Cl− channel activity in basolaterally permeabilized T84 cells
- Format: cell-based
- Measurement Conditions: forskolin 20 µM, read-out: IC50, inhibition of apical Cl− current induced by forskolin
Quantity Kind: pIC50
Scale: negative log10 of molar concentration, which is what pIC50 denotes.

Q: # input compound: `O=C(O)Cc1ccccc1Nc1c(Cl)cccc1Cl` ; wanted: its pIC50
Ans: 5.10

###

- Measured On: UniProt:P13569
- Assay Comment: Apical Cl− current analysis of CFTR Cl− channel activity in basolaterally permeabilized T84 cells
- Type: cell-based
- Measurement Conditions: genistein 20 µM, read-out: IC50, inhibition of apical Cl− current induced by genistein
Quantity Kind: pIC50
Scale: negative log10 of molar concentration, which is what pIC50 denotes.

Q: Request body: readout pIC50, system UniProt:P13569, query `O=C(O)Cc1ccccc1Nc1c(Cl)cccc1Cl` . Return the value.
Ans: 5.00

Data origin, for the record: paper PMC4154654
